experimental.target: OR52D1 (Homo sapiens)
reported.conditions: stereoisomer not certain

| compound | odorant receptor agonist call |
| --- | --- |
| CCC(=O)O | active |
| CCCCCC(=O)OCC | active |
| CC(=O)c1c(C)c([N+](=O)[O-])c(C(C)(C)C)c([N+](=O)[O-])c1C | inactive |
| CCCCCCO | inactive |
| CCCCCCC1CCC(=O)O1 (stereo not drawn) | inactive |
| CCCCCC(O)CC (stereo not drawn) | inactive |
| CCCCCCCCCC(=O)OC | inactive |
| CC(=O)C(C)O (stereo not drawn) | active |
| CCCCCCC(C)O (stereo not drawn) | inactive |
| CC(C)=CCCC(C)CC=O (stereo not drawn) | inactive |
| CCCCCCCCCCCC=O | inactive |
| CCOC(=O)C(C)C | inactive |
| CC=Cc1ccc(OC)cc1 | active |
| CC1CCCCCCCCCCCCC(=O)C1 (stereo not drawn) | inactive |
| c1ccc2scnc2c1 | active |
| CCCCCC(=O)CC | active |
| CC(=O)CCC=C(C)C | active |
| CCCCCCCCCCCCO | inactive |
